src = ChEMBL document CHEMBL3232894

Target: Cyclin-dependent kinase 4 (Homo sapiens, UniProt P11802)
Sequence (P11802 whole entry): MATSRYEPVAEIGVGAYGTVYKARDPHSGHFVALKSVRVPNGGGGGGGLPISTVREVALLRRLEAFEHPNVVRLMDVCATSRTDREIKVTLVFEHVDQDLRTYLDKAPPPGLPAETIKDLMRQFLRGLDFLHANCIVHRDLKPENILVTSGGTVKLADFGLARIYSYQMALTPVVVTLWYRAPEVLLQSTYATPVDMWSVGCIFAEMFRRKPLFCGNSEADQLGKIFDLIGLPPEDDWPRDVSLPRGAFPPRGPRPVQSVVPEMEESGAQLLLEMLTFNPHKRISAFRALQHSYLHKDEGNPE
Assay: Inhibition of CDK4 in human MOLM13 cells assessed as inhibition of Rb phosphorylation at Ser780 after 24 hrs
Assay type: cell-based, MOLM-13

{"columns": ["structure", "measurement_target", "IC50"],
 "data": [
  ["CN(C)C1CCN(c2ccc(Nc3ncc4c5ccncc5n([C@H]5CC[C@H](C)CC5)c4n3)nn2)CC1", "Cyclin-dependent kinase 4 (Homo sapiens, UniProt P11802)", "23 nM"]
]}

====

Target: Receptor-type tyrosine-protein kinase FLT3 (Homo sapiens, UniProt P36888, D835H)
Assay: Binding affinity to FLT3 D835H mutant (unknown origin)

{"columns": ["structure", "unit_text", "Kd"],
 "data": [
  ["C[C@H]1CC[C@H](n2c3cnccc3c3cnc(Nc4ccc5c(n4)CCN(C(=O)CO)C5)nc32)CC1", "nM", 1]
]}

====

Test system: MOLM-13
Test: Antiproliferative activity against human MOLM13 cells harboring FLT3 ITD mutant assessed as incorporation of [3H]thymidine into DNA after 72 hrs by beta-plate counting analysis
Format: functional, cell-based
Mark met only for IC50 values smaller than 9 nM; exact matches and larger values are not met.

{"columns": ["structure", "measurement_target", "cat"],
 "data": [
  ["C[C@@H](O)CN(C)C1CCN(c2ccc(Nc3ncc4c5ccncc5n([C@H]5CC[C@H](C)CC5)c4n3)nn2)CC1", "MOLM-13", "met"],
  ["C[C@H]1CC[C@H](n2c3cnccc3c3cnc(Nc4ccc(N5CCNCC5)cn4)nc32)CC1", "MOLM-13", "not met"],
  ["C[C@H]1CC[C@H](n2c3cnccc3c3cnc(Nc4ccc(N5CCN(C(=O)CO)CC5)nn4)nc32)CC1", "MOLM-13", "not met"],
  ["CN(C)C1CCN(c2ccc(Nc3ncc4c5ccncc5n([C@H]5CC[C@H](C)CC5)c4n3)nc2F)CC1", "MOLM-13", "not met"],
  ["c1cc2c3cnc(Nc4ccc(N5CCNCC5)cn4)nc3n(C3CCCC3)c2cn1", "MOLM-13", "met"],
  ["CNC(=O)c1cc(Oc2ccc(NC(=O)Nc3ccc(Cl)c(C(F)(F)F)c3)cc2)ccn1", "MOLM-13", "met"]
]}

====

Listing of recorded pIC50 by entry.
Molecular target: Receptor-type tyrosine-protein kinase FLT3 (Homo sapiens)
Sequence (P36888 whole entry): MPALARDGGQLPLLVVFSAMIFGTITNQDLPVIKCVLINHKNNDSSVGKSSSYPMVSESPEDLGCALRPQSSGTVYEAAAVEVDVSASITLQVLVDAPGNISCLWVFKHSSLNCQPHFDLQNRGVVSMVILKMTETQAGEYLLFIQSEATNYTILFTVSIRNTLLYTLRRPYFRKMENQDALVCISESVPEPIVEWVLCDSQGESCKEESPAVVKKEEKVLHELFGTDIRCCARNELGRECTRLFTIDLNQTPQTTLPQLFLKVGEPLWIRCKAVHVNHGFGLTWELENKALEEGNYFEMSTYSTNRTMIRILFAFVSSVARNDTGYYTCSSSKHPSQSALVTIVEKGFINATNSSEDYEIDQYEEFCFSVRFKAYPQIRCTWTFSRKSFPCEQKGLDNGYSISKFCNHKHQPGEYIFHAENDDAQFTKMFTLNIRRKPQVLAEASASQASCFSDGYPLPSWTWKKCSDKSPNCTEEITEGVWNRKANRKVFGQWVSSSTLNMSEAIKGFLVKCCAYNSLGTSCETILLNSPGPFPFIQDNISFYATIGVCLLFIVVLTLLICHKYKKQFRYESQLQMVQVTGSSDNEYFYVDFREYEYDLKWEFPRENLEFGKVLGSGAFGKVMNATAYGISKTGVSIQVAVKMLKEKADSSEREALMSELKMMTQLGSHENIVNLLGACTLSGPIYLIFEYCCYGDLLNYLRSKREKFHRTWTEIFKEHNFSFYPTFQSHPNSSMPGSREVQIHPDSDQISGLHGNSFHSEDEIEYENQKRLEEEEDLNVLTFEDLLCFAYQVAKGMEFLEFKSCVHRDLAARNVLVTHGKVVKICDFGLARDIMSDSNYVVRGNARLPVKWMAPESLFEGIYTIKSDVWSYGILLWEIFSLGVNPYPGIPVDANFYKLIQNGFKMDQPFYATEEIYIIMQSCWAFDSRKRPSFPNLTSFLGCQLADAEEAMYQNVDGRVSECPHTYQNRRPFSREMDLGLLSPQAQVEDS
pIC50: −log10 of the molar value.
quantity: pIC50

{"columns": ["molecule", "measurement_target", "recorded_number"],
 "data": [
  ["N#Cc1nccc2c3cnc(Nc4ccc(N5CCNCC5)cn4)nc3n(C3CCCC3)c12", "Receptor-type tyrosine-protein kinase FLT3 (Homo sapiens)", 7.34],
  ["c1cc2c3cnc(Nc4ccc(N5CCNCC5)cn4)nc3n(C3CCCCC3)c2cn1", "Receptor-type tyrosine-protein kinase FLT3 (Homo sapiens)", 8.70],
  ["C[C@H]1CC[C@H](n2c3cnccc3c3cnc(Nc4ccc(N5CCN(C(=O)CO)CC5)nn4)nc32)CC1", "Receptor-type tyrosine-protein kinase FLT3 (Homo sapiens)", 8.10],
  ["CN(C)C1CCN(c2ccc(Nc3ncc4c5ccncc5n([C@H]5CC[C@H](C)CC5)c4n3)nc2F)CC1", "Receptor-type tyrosine-protein kinase FLT3 (Homo sapiens)", 9.22],
  ["c1cc2c3cnc(Nc4ccc(N5CCNCC5)cn4)nc3n(C3CCCC3)c2cn1", "Receptor-type tyrosine-protein kinase FLT3 (Homo sapiens)", 7.85],
  ["C[C@H]1CC[C@H](n2c3cnccc3c3cnc(Nc4ccc5c(n4)CCN(C(=O)CO)C5)nc32)CC1", "Receptor-type tyrosine-protein kinase FLT3 (Homo sapiens)", 9.00],
  ["COc1nc(Nc2ncc3c4ccncc4n([C@H]4CC[C@H](C)CC4)c3n2)ccc1N1CCC2(CCC(=O)N2)CC1", "Receptor-type tyrosine-protein kinase FLT3 (Homo sapiens)", 9.22],
  ["C[C@H]1CC[C@H](n2c3cnccc3c3cnc(Nc4ccc(N5CCNCC5)cn4)nc32)CC1", "Receptor-type tyrosine-protein kinase FLT3 (Homo sapiens)", 8.70],
  ["C[C@H]1CC[C@H](n2c3cnccc3c3cnc(Nc4ccc(N5CCNCC5)nn4)nc32)CC1", "Receptor-type tyrosine-protein kinase FLT3 (Homo sapiens)", 8.22],
  ["CS(=O)(=O)CC1CCN(c2ccc(Nc3ncc4c5ccncc5n([C@H]5CC[C@H](C)CC5)c4n3)nn2)CC1", "Receptor-type tyrosine-protein kinase FLT3 (Homo sapiens)", 8.10],
  ["CN(C)C1CCN(c2ccc(Nc3ncc4c5ccncc5n([C@H]5CC[C@H](C)CC5)c4n3)nc2)CC1", "Receptor-type tyrosine-protein kinase FLT3 (Homo sapiens)", 8.70],
  ["Cc1nccc2c3cnc(Nc4ccc(N5CCNCC5)cn4)nc3n(C3CCCC3)c12", "Receptor-type tyrosine-protein kinase FLT3 (Homo sapiens)", 7.66],
  ["CC1CCC(n2c3cnccc3c3cnc(Nc4ccc(N5CCNCC5)cn4)nc32)CC1 (mixture of isomers)", "Receptor-type tyrosine-protein kinase FLT3 (Homo sapiens)", 8.70],
  ["C[C@@H](CO)n1c2cnccc2c2cnc(Nc3ccc(N4CCNCC4)cn3)nc21", "Receptor-type tyrosine-protein kinase FLT3 (Homo sapiens)", 7.37],
  ["C[C@H]1CC[C@H](n2c3cnccc3c3cnc(Nc4ccc(N5CCC6(CC5)CCS(=O)(=O)C6)nn4)nc32)CC1", "Receptor-type tyrosine-protein kinase FLT3 (Homo sapiens)", 8.30],
  ["Clc1nccc2c3cnc(Nc4ccc(N5CCNCC5)cn4)nc3n(C3CCCC3)c12", "Receptor-type tyrosine-protein kinase FLT3 (Homo sapiens)", 8.30]
]}
